B1: IQUB (parent)
chain: CRNCINLQNEAQKRESFLKYKCLL

- Variants of: B1
- protocol: protein stability index of a GFP-peptide fusion (GPS, HEK-293T) (PSI 1-6); higher = more stable;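 further: lentivirally expressed fusions sorted by FACS into six bins by GFP to DsRed ratio, PSI derived from sequencing read proportions per bin multiplied by bin number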
- conditions: c terminus: a fixed tail appended
Short version: protein stability index at least 2 is 1, less is -1.

Query: Test whether the variant C4S records protein stability index of 2 or higher.
Reply: -1

Query: Test whether the variant A11C records protein stability index of 2 or higher.
Reply: -1

Query: Test whether the variant C22Q records protein stability index of 2 or higher.
Reply: 1

Reference source for all entries: the supplement of paper PMC10567573
